# Test method notes: in vitro
# Format: cell-based
# Stated conditions: human
# Method: HEK293T are model normal (non-cancer) cells that are widely used to compare the selectivity of cytostatic formulations on cancer cells. […] The cytotoxic activity of paclitaxel, Apiol-PPh3 and analogues was determined using an MTT test. Paclitaxel-adjuvant synergism coefficients (SC) were calculated as CV (paclitaxel) × CV (alone adjuvant)/CV (combo paclitaxel + adjuvant), where CV represents the cell viability. […]
Entries and their viability at 300 µM values follow.
Enter your answer as a number in %; do not include the unit.

Use the examples below as a reference point.
| Compound | Unit | viability at 300 µM |
| --- | --- | --- |
| COc1c(CCC[P+](c2ccccc2)(c2ccccc2)c2ccccc2)cc2c(c1OC)OCO2 [Dillapiol-PPh3] | % | 70 |
| COc1cc(CCC[P+](c2ccccc2)(c2ccccc2)c2ccccc2)c(OC)c2c1OCO2 [Apiol-PPh3] | % | 71 |
| COc1cc(CCC[P+](c2ccccc2)(c2ccccc2)c2ccccc2)cc2c1OCO2 [Myristicin-PPh3] | % | 75 |

Please look at the following compound next.
Q: Please look at this compound and report its viability at 300 µM: COc1cc(CCC[P+](c2ccccc2)(c2ccccc2)c2ccccc2)c(OC)c(OC)c1OC [Allyltetramethoxybenzene-PPh3]
Result: 83

###

# reported Solubility in the Presence of 0.05 M M-β-CD; entries follow
# Test method notes: Solubility by UV spectroscopy (PBS, with and without M-β-CD)
# Type: physicochemical
State the answer as a number, implicitly in mM.

| Molecular string | Unit | Observed measurement |
| --- | --- | --- |
| COc1cc(CCC[P+](c2ccccc2)(c2ccccc2)c2ccccc2)c(OC)c2c1OCO2 | mM | 15 |

Q: Quote Solubility in the Presence of 0.05 M M-β-CD reported for `COc1cc(CCC[P+](c2ccccc2)(c2ccccc2)c2ccccc2)c(OC)c(OC)c1OC` please.
Result: 17

Q: Look up Solubility in the Presence of 0.05 M M-β-CD of `COc1c(CCC[P+](c2ccccc2)(c2ccccc2)c2ccccc2)cc2c(c1OC)OCO2` and report it.
Result: 8

Q: Look up and state reported Solubility in the Presence of 0.05 M M-β-CD for `COc1cc(CCC[P+](c2ccccc2)(c2ccccc2)c2ccccc2)cc2c1OCO2`
Result: 12

###

# Test method notes: in vitro
# Format: cell-based
# Stated conditions: human
Entries and their viability at 100 µM
Respond numerically; units are % and should not be typed.

Example entries and their recorded answers appear below.
| Molecular string | Property measured | Observed measurement |
| --- | --- | --- |
| COc1c(CCC[P+](c2ccccc2)(c2ccccc2)c2ccccc2)cc2c(c1OC)OCO2 | viability at 100 µM | 84 |
| COc1cc(CCC[P+](c2ccccc2)(c2ccccc2)c2ccccc2)c(OC)c2c1OCO2 | viability at 100 µM | 82 |

Q: Determine its reported viability at 100 µM: `COc1cc(CCC[P+](c2ccccc2)(c2ccccc2)c2ccccc2)c(OC)c(OC)c1OC`
Result: 88

Q: Retrieve viability at 100 µM measured for `COc1cc(CCC[P+](c2ccccc2)(c2ccccc2)c2ccccc2)cc2c1OCO2` and print it.
Result: 91

###

# Test method notes: Solubility by UV spectroscopy (PBS, with and without M-β-CD)
# Type: physicochemical
# Stated conditions: aqueous buffer, thermodynamic from solid; PBS; read-out: Solubility in PBS
Property measured: solubility (µM)
Quick note: give the figure in µM, leave out the unit.

Q: Entry C=CCc1cc(OC)c2c(c1)OCO2 [Myristicin, myristicin, reference compound] needs its solubility filled in; supply it.
Result: 30

###

# Test system: A549 cells
# Test method notes: MTT assay, cytotoxic activity against A549
# Type: cell-based
# Stated conditions: Homo sapiens, A549, read-out: −lg (IC50) of X in M-β-CD against A549
As shown below, each of these compounds has a reported pIC50 value.
pIC50 (log units): -log10 of the concentration in mol/L.

| Compound | Experimental target | pIC50 |
| --- | --- | --- |
| C=CCc1cc(OC)c2c(c1OC)OCO2 [Apiol] | A549 cells | 3.60 |

Q: Identify measured pIC50 associated with C=CCc1cc(OC)c(OC)c(OC)c1OC [Allyltetramethoxybenzene, allyltetramethoxybenzene, reference compound]
Result: 3.50

###

# Test method notes: Dissociation constants of complexes with heparin by FTIR spectroscopy (Hill fit)
# Format: physicochemical
# Stated conditions: calculated per one unit of heparin C12H19NO20S3, PBS
# Procedure: FTIR spectroscopy provides valuable data on the interaction of molecules, including those applicable to characterize the non-covalent complexes of apiol-PPh3 (and analogues) with cyclodextrins and heparin. […] The ATR-FTIR spectra of samples (Section 3.3) were acquired using a Bruker Tensor 27 spectrometer equipped with a liquid N2 cooled MCT (mercury cadmium telluride) detector. […] FTIR spectra were recorded from 850 to 4000 cm^−1 with 1 cm^−1 spectral resolution; 50 scans were accumulated and averaged. […]
Parameter −lg Kd (X − Heparin): see the listing below.
Format: numeric value only, no unit, no commentary.

| Compound | −lg Kd (X − Heparin) |
| --- | --- |
| COc1cc(CCC[P+](c2ccccc2)(c2ccccc2)c2ccccc2)c(OC)c(OC)c1OC [Allyltetramethoxybenzene-PPh3] | 3.2 |
| COc1cc(CCC[P+](c2ccccc2)(c2ccccc2)c2ccccc2)cc2c1OCO2 [Myristicin-PPh3] | 2.6 |
| COc1c(CCC[P+](c2ccccc2)(c2ccccc2)c2ccccc2)cc2c(c1OC)OCO2 [Dillapiol-PPh3] | 3.0 |

Q: Using the record for COc1cc(CCC[P+](c2ccccc2)(c2ccccc2)c2ccccc2)c(OC)c2c1OCO2 [Apiol-PPh3] , state its measured −lg Kd (X − Heparin).
Result: 2.7

###

# Test method notes: Dissociation constants of complexes with γ-CD by FTIR spectroscopy (Hill fit)
# Format: physicochemical
# Stated conditions: complex formed in molar excess of X approximately 1.2–1.4, PBS
Property measured: −lg Kd (X − γ-CD)
Keep the answer to the number alone.

Examples from the recorded data:
| Molecular string | −lg Kd (X − γ-CD) |
| --- | --- |
| COc1cc(CCC[P+](c2ccccc2)(c2ccccc2)c2ccccc2)c(OC)c(OC)c1OC | 2.1 |
| COc1cc(CCC[P+](c2ccccc2)(c2ccccc2)c2ccccc2)cc2c1OCO2 | 1.3 |

Q: Please indicate −lg Kd (X − γ-CD) recorded for `COc1cc(CCC[P+](c2ccccc2)(c2ccccc2)c2ccccc2)c(OC)c2c1OCO2`
Result: 1.2

Q: Output measured −lg Kd (X − γ-CD) for this item: `COc1c(CCC[P+](c2ccccc2)(c2ccccc2)c2ccccc2)cc2c(c1OC)OCO2`
Result: 1.4

###

# System: erythrocytes
# Test method notes: Hemolytic activity
# Type: cell-based
# Stated conditions: 0.1 mg/mL
Property measured: Hemolysis Index (%)
Respond numerically; units are % and should not be typed.

Example cases with answers are listed next.
| Molecular string | Experimental target | Unit | Hemolysis Index |
| --- | --- | --- | --- |
| COc1cc(CCC[P+](c2ccccc2)(c2ccccc2)c2ccccc2)c(OC)c2c1OCO2 | erythrocytes | % | 0.8 |
| COc1c(CCC[P+](c2ccccc2)(c2ccccc2)c2ccccc2)cc2c(c1OC)OCO2 | erythrocytes | % | 0.9 |

Q: Fill in Hemolysis Index for record `COc1cc(CCC[P+](c2ccccc2)(c2ccccc2)c2ccccc2)cc2c1OCO2`
Result: 0.5

Q: Supply recorded Hemolysis Index for `COc1cc(CCC[P+](c2ccccc2)(c2ccccc2)c2ccccc2)c(OC)c(OC)c1OC` here.
Result: 0.7

###

# Test method notes: Solubility by UV spectroscopy (PBS, with and without M-β-CD)
# Assay type: physicochemical
# Stated conditions: aqueous buffer, thermodynamic from solid
This section presents compounds with their documented solubility values.
State just the number; it will be interpreted in µM.

Record excerpt, results attached:
| Molecular string | Observed measurement |
| --- | --- |
| COc1cc(CCC[P+](c2ccccc2)(c2ccccc2)c2ccccc2)c(OC)c(OC)c1OC | 70 |
| COc1cc(CCC[P+](c2ccccc2)(c2ccccc2)c2ccccc2)c(OC)c2c1OCO2 | 80 |
| COc1cc(CCC[P+](c2ccccc2)(c2ccccc2)c2ccccc2)cc2c1OCO2 | 40 |

Field: next compound
Q: Hello, please tell me recorded solubility for this one: `COc1c(CCC[P+](c2ccccc2)(c2ccccc2)c2ccccc2)cc2c(c1OC)OCO2`
Result: 90
